Molecular target: Aurora kinase B (Homo sapiens, UniProt Q96GD4)
Sequence (Q96GD4 whole entry): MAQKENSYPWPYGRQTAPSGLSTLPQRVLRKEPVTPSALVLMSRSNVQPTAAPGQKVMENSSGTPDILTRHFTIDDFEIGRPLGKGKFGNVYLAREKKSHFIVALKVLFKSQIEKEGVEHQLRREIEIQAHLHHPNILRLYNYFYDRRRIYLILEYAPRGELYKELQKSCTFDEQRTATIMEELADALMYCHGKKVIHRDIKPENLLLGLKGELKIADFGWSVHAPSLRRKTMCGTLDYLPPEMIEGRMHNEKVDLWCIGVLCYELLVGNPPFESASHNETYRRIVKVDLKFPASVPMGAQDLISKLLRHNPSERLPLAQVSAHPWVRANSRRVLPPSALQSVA
measurement-label: IC50 (nM)

1) CN1C(=O)c2sccc2N(C)c2nc(Nc3ccc(S(N)(=O)=O)cc3)ncc21: 19.1

----------
Biological target: Aurora kinase B (Homo sapiens)
pKd: −log10 of the molar value.
measurement-label: pKd

1. CN1C(=O)c2sccc2N(C)c2nc(Nc3ccc(S(N)(=O)=O)cc3)ncc21: 7.40

----------
Target: Mitogen-activated protein kinase kinase kinase 2 (Homo sapiens, UniProt Q9Y2U5)
Sequence (Q9Y2U5 whole entry): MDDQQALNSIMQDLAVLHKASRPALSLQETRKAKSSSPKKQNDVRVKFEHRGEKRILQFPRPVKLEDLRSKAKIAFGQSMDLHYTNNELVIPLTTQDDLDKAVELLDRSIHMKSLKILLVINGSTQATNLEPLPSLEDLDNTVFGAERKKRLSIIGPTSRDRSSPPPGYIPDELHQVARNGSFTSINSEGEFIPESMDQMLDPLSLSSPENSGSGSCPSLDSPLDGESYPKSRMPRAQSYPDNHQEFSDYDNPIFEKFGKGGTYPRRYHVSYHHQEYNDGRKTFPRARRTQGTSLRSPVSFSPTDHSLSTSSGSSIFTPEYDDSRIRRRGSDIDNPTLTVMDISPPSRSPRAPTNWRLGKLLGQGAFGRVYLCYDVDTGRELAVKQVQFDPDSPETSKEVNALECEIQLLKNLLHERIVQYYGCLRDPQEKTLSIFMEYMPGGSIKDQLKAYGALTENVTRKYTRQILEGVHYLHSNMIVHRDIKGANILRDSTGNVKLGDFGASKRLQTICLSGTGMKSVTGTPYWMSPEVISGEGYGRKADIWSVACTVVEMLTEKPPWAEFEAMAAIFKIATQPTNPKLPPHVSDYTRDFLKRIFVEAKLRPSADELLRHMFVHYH
Assay: Binding affinity to MAP3K2 (unknown origin) assessed as dissociation constant
measurement-label: Kd (µM)

1) CN1C(=O)c2sccc2N(C)c2nc(Nc3ccc(S(N)(=O)=O)cc3)ncc21: 0.019

----------
Assay: Binding affinity to phosphorylated ABL1 T315I mutant (unknown origin) assessed as dissociation constant
Parameters: species or system Homo sapiens
measurement-label: Kd

1. CN1C(=O)c2sccc2N(C)c2nc(Nc3ccc(S(N)(=O)=O)cc3)ncc21: 0.014 µM

----------
Target: Mitogen-activated protein kinase kinase kinase 3 (Homo sapiens)
Sequence (Q99759 whole entry): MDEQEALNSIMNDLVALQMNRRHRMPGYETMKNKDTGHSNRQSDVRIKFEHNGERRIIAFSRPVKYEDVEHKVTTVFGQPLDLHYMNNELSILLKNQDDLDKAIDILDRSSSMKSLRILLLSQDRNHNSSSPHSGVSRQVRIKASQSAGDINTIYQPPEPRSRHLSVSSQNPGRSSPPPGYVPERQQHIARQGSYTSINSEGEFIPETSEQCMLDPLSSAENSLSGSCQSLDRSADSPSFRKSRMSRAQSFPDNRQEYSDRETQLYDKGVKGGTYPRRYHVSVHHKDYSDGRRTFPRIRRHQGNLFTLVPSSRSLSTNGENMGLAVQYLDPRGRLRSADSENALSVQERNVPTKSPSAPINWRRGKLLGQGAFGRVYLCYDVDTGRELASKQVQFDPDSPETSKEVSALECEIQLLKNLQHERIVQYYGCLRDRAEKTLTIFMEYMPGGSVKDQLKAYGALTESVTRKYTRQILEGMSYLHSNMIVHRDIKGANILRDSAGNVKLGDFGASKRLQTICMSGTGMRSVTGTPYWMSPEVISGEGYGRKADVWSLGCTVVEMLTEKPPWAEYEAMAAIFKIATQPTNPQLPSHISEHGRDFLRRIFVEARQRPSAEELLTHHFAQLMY
Assay: Binding affinity to MAP3K3 (unknown origin) assessed as dissociation constant
pKd: −log10 of the molar value.
measurement-label: pKd

1) CN1C(=O)c2sccc2N(C)c2nc(Nc3ccc(S(N)(=O)=O)cc3)ncc21: 7.57

----------
Assay: Half life in male Sprague-Dawley rat at 10 mg/kg, po measured for 24 hrs by LC-MS/MS analysis
Type: ADME, organism-based
Settings: in vivo
measurement-label: half-life (h)

1. CN1C(=O)c2sccc2N(C)c2nc(Nc3ccc(S(N)(=O)=O)cc3)ncc21: 5.18

----------
Target: Receptor-interacting serine/threonine-protein kinase 4 (Homo sapiens, UniProt P57078)
measurement-label: Kd (nM)

1. CN1C(=O)c2sccc2N(C)c2nc(Nc3ccc(S(N)(=O)=O)cc3)ncc21: 140

----------
Target: Serine/threonine-protein kinase 4 (Homo sapiens)
Sequence (Q13043 whole entry): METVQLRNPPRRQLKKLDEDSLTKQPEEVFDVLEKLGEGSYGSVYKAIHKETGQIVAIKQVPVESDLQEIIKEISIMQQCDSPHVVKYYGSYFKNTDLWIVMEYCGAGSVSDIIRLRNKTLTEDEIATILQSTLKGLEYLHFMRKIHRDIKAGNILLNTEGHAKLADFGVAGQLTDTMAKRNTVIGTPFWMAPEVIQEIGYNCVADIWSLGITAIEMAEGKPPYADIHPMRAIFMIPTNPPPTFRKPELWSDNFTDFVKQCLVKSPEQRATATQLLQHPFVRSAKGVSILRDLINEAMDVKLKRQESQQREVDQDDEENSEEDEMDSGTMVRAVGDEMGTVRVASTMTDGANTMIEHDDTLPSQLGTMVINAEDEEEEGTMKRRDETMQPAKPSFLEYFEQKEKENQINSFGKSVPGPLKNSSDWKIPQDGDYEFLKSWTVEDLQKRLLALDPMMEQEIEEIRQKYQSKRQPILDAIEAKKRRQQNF
Experiment: Inhibition of MST1 (unknown origin) in presence of ATP by enzymatic assay
measurement-label: IC50

1. CN1C(=O)c2sccc2N(C)c2nc(Nc3ccc(S(N)(=O)=O)cc3)ncc21: 9.8 nM

----------
Assay: Tmax in male Sprague-Dawley rat at 5 mg/kg, iv measured for 24 hrs by LC-MS/MS analysis
Assay type: ADME, organism-based
Settings: in vivo
measurement-label: Tmax (min)

1. CN1C(=O)c2sccc2N(C)c2nc(Nc3ccc(S(N)(=O)=O)cc3)ncc21: 4.98

----------
Target: Serine/threonine-protein kinase ULK2 (Homo sapiens)
Sequence (Q8IYT8 whole entry): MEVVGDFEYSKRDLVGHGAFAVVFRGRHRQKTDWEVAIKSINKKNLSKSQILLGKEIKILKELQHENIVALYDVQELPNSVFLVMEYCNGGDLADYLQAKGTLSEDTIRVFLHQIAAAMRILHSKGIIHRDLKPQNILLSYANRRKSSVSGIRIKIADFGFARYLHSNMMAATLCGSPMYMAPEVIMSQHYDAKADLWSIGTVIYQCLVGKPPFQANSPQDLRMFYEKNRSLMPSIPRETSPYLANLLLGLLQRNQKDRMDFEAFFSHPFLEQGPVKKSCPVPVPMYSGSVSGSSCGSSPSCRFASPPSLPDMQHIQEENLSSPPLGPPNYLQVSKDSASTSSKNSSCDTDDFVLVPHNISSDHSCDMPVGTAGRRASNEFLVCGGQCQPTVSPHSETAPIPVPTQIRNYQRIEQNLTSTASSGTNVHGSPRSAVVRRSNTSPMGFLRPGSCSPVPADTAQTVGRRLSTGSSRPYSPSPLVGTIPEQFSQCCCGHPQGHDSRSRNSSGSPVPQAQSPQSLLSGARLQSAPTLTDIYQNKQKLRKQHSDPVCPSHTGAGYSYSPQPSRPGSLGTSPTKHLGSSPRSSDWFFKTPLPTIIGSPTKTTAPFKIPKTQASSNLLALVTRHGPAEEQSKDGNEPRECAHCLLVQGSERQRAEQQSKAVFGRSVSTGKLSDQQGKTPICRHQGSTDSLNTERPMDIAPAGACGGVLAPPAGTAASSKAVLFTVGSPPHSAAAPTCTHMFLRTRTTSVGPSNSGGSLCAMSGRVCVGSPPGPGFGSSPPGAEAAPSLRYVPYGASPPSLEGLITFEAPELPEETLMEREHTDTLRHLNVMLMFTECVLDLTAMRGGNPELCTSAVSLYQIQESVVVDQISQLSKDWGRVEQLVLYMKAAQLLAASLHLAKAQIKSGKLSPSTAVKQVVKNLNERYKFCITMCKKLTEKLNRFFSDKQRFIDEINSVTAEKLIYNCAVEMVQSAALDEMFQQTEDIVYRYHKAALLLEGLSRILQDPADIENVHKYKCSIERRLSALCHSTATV
pKd: −log10 of the molar value.
measurement-label: pKd

1. CN1C(=O)c2sccc2N(C)c2nc(Nc3ccc(S(N)(=O)=O)cc3)ncc21: 7.46

----------
Biological target: Phosphatidylinositol 4,5-bisphosphate 3-kinase catalytic subunit gamma isoform (Homo sapiens)
Experiment: Inhibition of PIK3CG (unknown origin) in presence of ATP by enzymatic assay
pIC50: −log10 of the molar value.
measurement-label: pIC50

1) CN1C(=O)c2sccc2N(C)c2nc(Nc3ccc(S(N)(=O)=O)cc3)ncc21: 7.42

----------
Target: Serine/threonine-protein kinase TAO2 (Homo sapiens, UniProt Q9UL54)
Sequence (Q9UL54 whole entry): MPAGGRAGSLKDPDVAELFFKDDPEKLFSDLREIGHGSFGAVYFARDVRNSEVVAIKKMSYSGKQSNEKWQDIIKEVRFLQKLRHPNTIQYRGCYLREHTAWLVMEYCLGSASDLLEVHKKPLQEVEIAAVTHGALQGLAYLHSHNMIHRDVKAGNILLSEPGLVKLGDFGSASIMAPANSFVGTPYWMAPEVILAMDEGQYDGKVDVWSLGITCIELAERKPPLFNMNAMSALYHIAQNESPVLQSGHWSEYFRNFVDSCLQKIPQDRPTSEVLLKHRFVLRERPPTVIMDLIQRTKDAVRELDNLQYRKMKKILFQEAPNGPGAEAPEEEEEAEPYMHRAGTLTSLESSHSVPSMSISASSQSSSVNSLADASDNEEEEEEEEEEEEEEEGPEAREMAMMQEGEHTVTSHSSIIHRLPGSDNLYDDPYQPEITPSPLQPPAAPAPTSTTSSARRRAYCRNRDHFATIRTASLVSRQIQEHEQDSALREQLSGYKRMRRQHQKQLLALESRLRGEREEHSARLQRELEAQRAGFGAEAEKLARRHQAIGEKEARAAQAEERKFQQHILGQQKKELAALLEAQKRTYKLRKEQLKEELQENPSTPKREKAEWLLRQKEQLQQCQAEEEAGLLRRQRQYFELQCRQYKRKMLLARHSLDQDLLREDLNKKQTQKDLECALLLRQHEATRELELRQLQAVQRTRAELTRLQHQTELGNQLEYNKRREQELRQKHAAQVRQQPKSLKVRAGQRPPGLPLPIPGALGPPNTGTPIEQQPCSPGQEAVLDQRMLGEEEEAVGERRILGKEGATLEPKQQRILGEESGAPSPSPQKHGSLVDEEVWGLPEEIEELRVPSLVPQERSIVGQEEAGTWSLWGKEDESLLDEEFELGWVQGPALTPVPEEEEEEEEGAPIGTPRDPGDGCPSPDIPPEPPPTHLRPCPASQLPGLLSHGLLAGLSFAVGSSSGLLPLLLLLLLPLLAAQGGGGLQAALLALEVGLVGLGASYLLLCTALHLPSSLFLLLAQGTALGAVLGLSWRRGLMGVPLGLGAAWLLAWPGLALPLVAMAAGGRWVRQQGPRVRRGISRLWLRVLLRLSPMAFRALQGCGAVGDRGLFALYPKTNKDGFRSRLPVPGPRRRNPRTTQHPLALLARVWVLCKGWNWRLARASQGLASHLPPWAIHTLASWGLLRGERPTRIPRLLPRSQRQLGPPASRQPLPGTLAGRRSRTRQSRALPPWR
Experiment: Binding affinity to TAOK2 (unknown origin) assessed as dissociation constant
measurement-label: Kd

1. CN1C(=O)c2sccc2N(C)c2nc(Nc3ccc(S(N)(=O)=O)cc3)ncc21: 0.1 µM

----------
IC50 overview
Molecular target: Serine/threonine-protein kinase 3 (Homo sapiens)
Sequence (Q13188 whole entry): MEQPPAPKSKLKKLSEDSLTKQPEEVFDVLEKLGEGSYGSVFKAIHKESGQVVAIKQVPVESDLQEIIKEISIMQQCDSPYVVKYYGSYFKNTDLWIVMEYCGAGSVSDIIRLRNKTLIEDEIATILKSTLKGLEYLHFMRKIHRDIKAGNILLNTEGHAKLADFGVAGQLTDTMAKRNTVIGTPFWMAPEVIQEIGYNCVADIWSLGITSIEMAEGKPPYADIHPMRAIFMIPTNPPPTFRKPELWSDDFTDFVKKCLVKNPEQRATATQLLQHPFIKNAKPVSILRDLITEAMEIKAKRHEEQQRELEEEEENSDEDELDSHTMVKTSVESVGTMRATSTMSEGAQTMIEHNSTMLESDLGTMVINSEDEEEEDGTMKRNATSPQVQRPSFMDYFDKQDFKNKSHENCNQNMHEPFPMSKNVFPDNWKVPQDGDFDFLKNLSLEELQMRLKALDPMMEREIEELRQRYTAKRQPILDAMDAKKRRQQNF
Assay: Inhibition of recombinant His-tagged full-length MST2 (unknown origin) expressing in Escherichia coli assessed as GST-tagged MOB1a phosphorylation level incubated for 30 mins by immunoblot analysis
measurement-label: IC50

1. CN1C(=O)c2sccc2N(C)c2nc(Nc3ccc(S(=O)(=O)NC4CC4)cc3)ncc21: 207 nM
2. CSc1ccc(Nc2ncc3c(n2)N(C)c2ccsc2C(=O)N3C)cc1: 1160 nM
3. CN1CCC(NS(=O)(=O)c2ccc(Nc3ncc4c(n3)N(C)c3ccsc3C(=O)N4C)cc2)CC1: 3840 nM
4. CN1C(=O)c2sccc2N(C)c2nc(Nc3ccc(S(N)(=O)=O)cc3)ncc21: 38.2 nM
5. CN1C(=O)c2sccc2N(C)c2nc(Nc3ccc(S(C)(=O)=O)cc3)ncc21: 596 nM
